Let's look at some binders and their measured kon.
- TESTED SYSTEM: T1, mFLAG-EGF34+NRR-His6, the murine Notch1 NRR immunogen (mouse Notch1 V1307-Q1723) (mouse, UniProt Q01705 1307-1723)
- T1 construct: N-terminal FLAG tag and C-terminal His tag, expressed in 293-F cells; also called mNotch1 NRR; mouse Notch1 NRR
- T1 sequence (Q01705 other isoform, or with tags, fused parts or gaps): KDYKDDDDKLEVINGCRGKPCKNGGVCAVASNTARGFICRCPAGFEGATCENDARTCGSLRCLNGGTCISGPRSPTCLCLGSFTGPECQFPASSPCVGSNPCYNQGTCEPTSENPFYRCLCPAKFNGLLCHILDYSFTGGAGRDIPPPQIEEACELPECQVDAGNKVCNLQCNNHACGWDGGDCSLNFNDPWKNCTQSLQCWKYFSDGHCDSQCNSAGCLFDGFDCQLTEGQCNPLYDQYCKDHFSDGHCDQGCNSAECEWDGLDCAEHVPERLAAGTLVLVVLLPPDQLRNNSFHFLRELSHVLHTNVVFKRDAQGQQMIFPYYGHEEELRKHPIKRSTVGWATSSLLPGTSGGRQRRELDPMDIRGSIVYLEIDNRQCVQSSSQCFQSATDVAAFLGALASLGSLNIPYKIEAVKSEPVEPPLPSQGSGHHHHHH
- TEST METHOD NOTES: SPR (BIAcore-3000), IgG captured on rabbit anti-human IgG, NRR1-ECD protein injected 3.9-500 nM, 25 C, 1:1 Langmuir
Give a bare numeral; the unit M⁻¹ s⁻¹ is implied.

Look over these answered cases.
BINDER | MEASUREMENT UNITS | kon
Antibody A (antibody, IgG1, V domains shown, also called anti-Notch1 NRR Antibody A; Antibody A-hIgG1) VH: EVQLVESGGGLVQPGGSLRLSCAASGFTFSSYWIHWVRQAPGKGLEWVARINPSNGSTNYADSVKGRFTISADTSKNTAYLQMNSLRAEDTAVYYCARGSGFRWVMDYWGQGTLVTVSS VL: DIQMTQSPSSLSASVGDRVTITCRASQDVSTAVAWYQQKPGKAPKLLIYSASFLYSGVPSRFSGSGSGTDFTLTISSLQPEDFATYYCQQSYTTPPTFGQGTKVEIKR | M⁻¹ s⁻¹ | 91000
Antibody A-2 (antibody, IgG1, V domains shown, also called Antibody A-2-hIgG1) VH: EVQLVESGGGLVQPGGSLRLSCAASGFTFSSYWIHWVRQAPGKGLEWVARINPPNRSNQYADSVKGRFTISADTSKNTAYLQMNSLRAEDTAVYYCARGSGFRWVMDYWGQGTLVTVSS VL: DIQMTQSPSSLSASVGDRVTITCRASQDVSTAVAWYQQKPGKAPKLLIYSASFLYSGVPSRFSGSGSGTDFTLTISSLQPEDFATYYCQQFYTTPSTFGQGTKVEIKR | M⁻¹ s⁻¹ | 110000
Antibody A-3 (antibody, V domains shown) VH: EVQLVESGGGLVQPGGSLRLSCAASGFTFSSYWIHWVRQAPGKGLEWVARINPANGSTRYADSVKGRFTISADTSKNTAYLQMNSLRAEDTAVYYCARGSGFRWVMDYWGQGTLVTVSS VL: DIQMTQSPSSLSASVGDRVTITCRASQDVSTAVAWYQQKPGKAPKLLIYSASFLYSGVPSRFSGSGSGTDFTLTISSLQPEDFATYYCQQSFSTPATFGQGTKVEIKR | M⁻¹ s⁻¹ | 92000

Give the measured kon for Antibody A-1 (antibody, IgG1, V domains shown, also called Antibody A-1-hIgG1) VH: EVQLVESGGGLVQPGGSLRLSCAASGFTFSSYWIHWVRQAPGKGLEWVARINPPNGSAHYADSVKGRFTISADTSKNTAYLQMNSLRAEDTAVYYCARGSGFRWVMDYWGQGTLVTVSS VL: DIQMTQSPSSLSASVGDRVTITCRASQDVSTAVAWYQQKPGKAPKLLIYSASFLYSGVPSRFSGSGSGTDFTLTISSLQPEDFATYYCQQSYTTPATFGQGTKVEIKR
85000
